Some molecules, each annotated with its measured logD.
- Assay remarks: Partition coefficient (logD)
- Format: physicochemical
- Test conditions: octanol/water
No unit in the answer, please; the number alone is enough.

Answered cases to consult:
> print(dat)
                                   molecule  reading
1  CCCCCCCC/C=C/CCCCCCCC(=O)O[C@@H](CO)COC(C)=O        7
2  CC(C)(C)C(=O)OCC(CO)OC(=O)C(C)(C)C (stereo unspecified)        2
3  CC(C)C(C/C=C1/CC(CO)(COC(=O)CC(C(C)C)C(C)C)OC1=O)C(C)C (stereo unspecified)        5
4      CCCCCCCC(=O)OC[C@H](CO)OC(=O)CCCCCCC        5
5  O=C(OC[C@H](CO)OC(=O)C12CC3CC(CC(C3)C1)C2)C12CC3CC(CC(C3)C1)C2        5

Turning now to a further molecule:
In: Endpoint output: logD of `CC(C)C(CC(=O)OC[C@H](CO)OC(=O)CC(C(C)C)C(C)C)C(C)C` . Value?
Out: 5
